# targetOfAssay: L-lactate dehydrogenase (Plasmodium falciparum (isolate CDC / Honduras)) (UniProt Q27743)
# Sequence (Q27743 whole entry, looked up): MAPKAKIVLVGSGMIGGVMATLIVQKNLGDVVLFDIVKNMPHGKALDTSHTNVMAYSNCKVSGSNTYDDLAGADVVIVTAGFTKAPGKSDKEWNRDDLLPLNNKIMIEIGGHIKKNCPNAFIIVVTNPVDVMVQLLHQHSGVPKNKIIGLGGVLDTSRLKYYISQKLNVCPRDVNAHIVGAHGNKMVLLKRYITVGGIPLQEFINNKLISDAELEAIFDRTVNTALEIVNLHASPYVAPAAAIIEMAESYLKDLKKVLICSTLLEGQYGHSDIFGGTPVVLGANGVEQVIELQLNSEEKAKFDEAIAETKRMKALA
# assayRemarks: PfLDH activity inhibition – cell lysate, 3D7 strain, counter-screen for P. falciparum growth inhibition project (AID 2304);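 further: 0% = vehicle and 100% = reference inhibitor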
# conditionLabel: P. falciparum 3D7 crude extract, LDH APAD/NBT absorbance; at 2 µM; hits give high values
Listed here are compounds together with their documented inhibition.
# number only, unit % dropped from output

Exercise: Lab note: need inhibition for CCOc1ccc2c(c1)C(C)(c1ccc3c(c1)C(C)CC(C)(C)N3)CC(C)(C)N2 (centres undefined) on L-lactate dehydrogenase (Plasmodium falciparum (isolate CDC / Honduras)) (UniProt Q27743), anyone have it?
Solution: -5

Exercise: Lab note: need inhibition for `CC(C)(C)c1ccc(NC(=O)c2cccc(CN3CCCN(Cc4cccc(C#N)c4)CC3)c2)cc1` on L-lactate dehydrogenase (Plasmodium falciparum (isolate CDC / Honduras)) (UniProt Q27743), anyone have it?
Solution: 4

Exercise: Lab note: need inhibition for `O=C(/C=C/c1ccc(Cl)c(Cl)c1)NCCCCCN1CCC(C(=O)Nc2ccc3c(c2)OCO3)CC1` on L-lactate dehydrogenase (Plasmodium falciparum (isolate CDC / Honduras)) (UniProt Q27743), anyone have it?
Solution: 4

Exercise: Lab note: need inhibition for Cc1ccc(N2C(=O)C3C(C2=O)[C@]2(c4ccccc4)C(=O)[C@@]3(c3ccccc3)C(c3ccccc3)=C2c2ccccc2)c(C)c1 (some centres undefined) on L-lactate dehydrogenase (Plasmodium falciparum (isolate CDC / Honduras)) (UniProt Q27743), anyone have it?
Solution: 6

Exercise: Lab note: need inhibition for `c1ccc2c(c1)ncc1c3ccccc3[nH]c21` on L-lactate dehydrogenase (Plasmodium falciparum (isolate CDC / Honduras)) (UniProt Q27743), anyone have it?
Solution: -6

Exercise: Lab note: need inhibition for `COc1ccc2nccc([C@@H](O)CN3CCC(NS(=O)(=O)c4cc(Br)c(Br)s4)CC3)c2c1` on L-lactate dehydrogenase (Plasmodium falciparum (isolate CDC / Honduras)) (UniProt Q27743), anyone have it?
Solution: -2

Exercise: Lab note: need inhibition for `COc1ccc2nccc([C@@H](O)CN3CCC(NC[C@H](Cc4ccccc4)NC(=O)OC(C)(C)C)CC3)c2c1` on L-lactate dehydrogenase (Plasmodium falciparum (isolate CDC / Honduras)) (UniProt Q27743), anyone have it?
Solution: 6

Exercise: Lab note: need inhibition for Cc1ccccc1NC(=O)C1CSCN1C(=O)OCc1ccccc1 (centres undefined) on L-lactate dehydrogenase (Plasmodium falciparum (isolate CDC / Honduras)) (UniProt Q27743), anyone have it?
Solution: -1

Exercise: Lab note: need inhibition for CC(C)n1cc(CN2CCCC(C(=O)Nc3cccc(-c4cc5ccccc5[nH]4)c3)C2)cn1 (centres undefined) on L-lactate dehydrogenase (Plasmodium falciparum (isolate CDC / Honduras)) (UniProt Q27743), anyone have it?
Solution: -3

Exercise: Lab note: need inhibition for COc1ccccc1C1CCN(C2CCC(NC(=O)c3cc(-c4ccc(Cl)cc4)cs3)CC2)CC1 (centres undefined) on L-lactate dehydrogenase (Plasmodium falciparum (isolate CDC / Honduras)) (UniProt Q27743), anyone have it?
Solution: -1

Exercise: Lab note: need inhibition for `COc1ccc(CON2C(N)=NC(N)=NC2(C)C)cc1OC` on L-lactate dehydrogenase (Plasmodium falciparum (isolate CDC / Honduras)) (UniProt Q27743), anyone have it?
Solution: 1

Exercise: Lab note: need inhibition for `CC(C)C1=NCc2ccc([N+](=O)[O-])cc2C(=O)N1` on L-lactate dehydrogenase (Plasmodium falciparum (isolate CDC / Honduras)) (UniProt Q27743), anyone have it?
Solution: 4

Exercise: Lab note: need inhibition for NC1CCN(Cc2cccc(-c3ccc(-c4nc5ccc(C(F)(F)F)cc5[nH]4)cc3)c2)C1 (centres undefined) on L-lactate dehydrogenase (Plasmodium falciparum (isolate CDC / Honduras)) (UniProt Q27743), anyone have it?
Solution: -9

Exercise: Lab note: need inhibition for `O=C(NCCc1ccccc1F)c1ccc(N2CCN(c3ccncc3)CC2)cn1` on L-lactate dehydrogenase (Plasmodium falciparum (isolate CDC / Honduras)) (UniProt Q27743), anyone have it?
Solution: -2

Exercise: Lab note: need inhibition for `CC(C)C[C@H](NC(=O)OC(C)(C)C)C(=O)Nc1ccc(Cc2ccc(NC(=O)[C@H](CC(C)C)NC(=O)OC(C)(C)C)cc2)cc1` on L-lactate dehydrogenase (Plasmodium falciparum (isolate CDC / Honduras)) (UniProt Q27743), anyone have it?
Solution: 0

Exercise: Lab note: need inhibition for `Cc1cccc2[nH]c(-c3ccc(-c4ccc(NC(=O)Nc5ccc(Cl)cc5)cc4)s3)nc12` on L-lactate dehydrogenase (Plasmodium falciparum (isolate CDC / Honduras)) (UniProt Q27743), anyone have it?
Solution: 7

Exercise: Lab note: need inhibition for `Cc1nc(-c2ccc(-c3ccc(C(=O)Nc4ccc(Cl)c(N5CCN(C)CC5)c4)cc3)c(C)c2)no1` on L-lactate dehydrogenase (Plasmodium falciparum (isolate CDC / Honduras)) (UniProt Q27743), anyone have it?
Solution: 4

Exercise: Lab note: need inhibition for `Cc1cc(N2CCCC2)nc(Nc2ccc(NC(=O)c3cccc(F)c3)cc2)n1` on L-lactate dehydrogenase (Plasmodium falciparum (isolate CDC / Honduras)) (UniProt Q27743), anyone have it?
Solution: -3

Exercise: Lab note: need inhibition for `CN(C)CCN(Cc1ccc(-c2ccc(CNCCc3ccccc3)cc2)nc1)C(=O)CCC1CCCC1` on L-lactate dehydrogenase (Plasmodium falciparum (isolate CDC / Honduras)) (UniProt Q27743), anyone have it?
Solution: -3

---

Listed here are compounds together with their documented growth inhibition.
# assayRemarks: inhibition of 3D7 malaria parasite growth – strain 3D7 (AID 2306);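 further: 0% = DMSO wells and 100% = chloroquine plus artemisinin control wells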
# conditionLabel: P. falciparum 3D7 erythrocytic growth, LDH absorbance, 72 h; at 2 µM; hits give high values
# number only, unit % dropped from output

- Cc1cnc(NCC2CCCCC2)nc1N[C@@H](CO)C(=O)Nc1ccccc1: 83

Exercise: Record request: growth inhibition value, item `CCc1ccc(NC(=O)N(CCCn2ccnc2)Cc2csc(-c3ccc(CNCc4ccccc4)cc3)n2)cc1`
Solution: 103

Exercise: Record request: growth inhibition value, item `CCOc1cc2ncnc(Nc3ccc(OCc4ccccc4F)c(Cl)c3)c2cc1OCC`
Solution: 101

Exercise: Record request: growth inhibition value, item `Fc1ccc2nc(-c3cccc(-c4ccc(CNCc5ccccc5)cc4)c3)[nH]c2c1`
Solution: 102

Exercise: Record request: growth inhibition value, item `O=C(Nc1cccc(-c2cccc(F)c2)c1)C1CCN(Cc2ccc(O)cc2)CC1`
Solution: 87

---

# assayRemarks: antimalarial activity against Dd2 strain (AID 2302);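 further: 0% = DMSO untreated growth and 100% = chloroquine plus artemisinin killed control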
# conditionLabel: P. falciparum Dd2 in RBCs, LDH growth readout, 72 h; at 2 µM; hits give high values
# class assignment by measured growth inhibition: bottom range (below 30%), center range (30% to below 90%), top range (90% or more)

* CCCCCCCCc1c(C)[nH]c(C)c(C#N)c1=O | top range
* CNC(=O)c1cnc(Nc2ccc(OCC(O)CN(C)C)cc2)nc1Nc1cccc([N+](=O)[O-])c1 (stereo not given) | top range
* Cn1nc(C(F)(F)F)c(-c2ccc(F)cc2)c1NC(=O)Nc1ccc(F)cc1F | top range

Exercise: Lab note: sort N#Cc1ccc2c(c1)CCN(CCC1CCC(NC(=O)/C=C/c3cc(Br)cs3)CC1)CC2 (stereo not given) into the matching growth inhibition band.
Solution: bottom range

Exercise: Lab note: sort `COc1ccc(CN(C)CCCc2ccc(NC(=O)c3cccc4c(=O)c5ccccc5[nH]c34)cc2)cc1OC` into the matching growth inhibition band.
Solution: center range

Exercise: Lab note: sort `Fc1cccc(COc2ccc(Nc3ncnc4ccc(C#C[C@H]5CCCN5)cc34)cc2Cl)c1` into the matching growth inhibition band.
Solution: bottom range

Exercise: Lab note: sort `Cc1c(Oc2ccc(-n3ccnc3)cc2)ncnc1N1CCC2(CC1)CNCc1ccccc12` into the matching growth inhibition band.
Solution: center range

Exercise: Lab note: sort `NC(N)=NCCCCN(Cc1ccccc1)c1ccccc1` into the matching growth inhibition band.
Solution: top range

Exercise: Lab note: sort `COc1cc(C)ccc1N1CCN(CCCCNC(=O)c2ccc(NC(=O)c3ccc(Cl)cc3)cc2)CC1` into the matching growth inhibition band.
Solution: center range

Exercise: Lab note: sort `COc1ccc2nccc([C@@H](O)CN3CCC(NC(=O)Cc4cccc5c(Br)cccc45)CC3)c2c1` into the matching growth inhibition band.
Solution: center range

Exercise: Lab note: sort `N#Cc1ccc(N[C@@H](CC2CCCCC2)C(=O)N[C@@H]2CCCc3ccccc32)c2ccccc12` into the matching growth inhibition band.
Solution: top range

Exercise: Lab note: sort `COc1ccc(OC)c(NC(=O)c2c(-c3c(F)cccc3Cl)noc2C)c1` into the matching growth inhibition band.
Solution: bottom range

Exercise: Lab note: sort `CCCc1cc(Cc2cnc(N)nc2N)cc(CCC)c1OCCCC(=O)OCC` into the matching growth inhibition band.
Solution: bottom range

Exercise: Lab note: sort `O=C(NCc1ccc(F)cc1)Nc1ccc(-c2cccc(-c3nc4ccc(F)cc4[nH]3)c2)cc1` into the matching growth inhibition band.
Solution: top range

Exercise: Lab note: sort `O=C(Nc1cccc(-c2ccc(-c3nc4ccc(C(F)(F)F)cc4[nH]3)s2)c1)c1cccnc1` into the matching growth inhibition band.
Solution: top range

Exercise: Lab note: sort Cc1cc(NC(=O)NCCN2CCC(NS(=O)(=O)c3ccccc3Cl)C2)c2ccccc2n1 (stereo not given) into the matching growth inhibition band.
Solution: center range

Exercise: Lab note: sort `O=C(Nc1ccc2c(c1)CNCC2)c1ccc(-c2ccc(Cl)cc2)cc1` into the matching growth inhibition band.
Solution: bottom range
